Below, each entry is listed alongside its reported EC50.
Test system: zfTac3rb
PROCEDURE DETAILS: Receptor transactivation assay, SRE-Luc reporter (PKC activation), COS-7 cells expressing zfTac3rb
Type: cell-based, zebrafish
TEST CONTEXT: Table 7 (native peptides and analogues); PKC activation; mean ± SEM; read-out: EC50 using SRE, zfTac3rb
*1 amine or outer side, *2 acyl side, *3 side chain or, on linkers, in order; H or OH if unused. Where a SMILES comes first, the peptide text is derived from it. [ ]: non-standard residue; d: D form. Suc = O=C(CCC(=O)[*:2])[*:1]; NMeV = CN[C@H](C(=O)O)C(C)C
Dear colleague, please return just the value in nM, with no unit written.

COMPOUND	MEASURED PROPERTY	RESULT
CC[C@H](C)[C@H](NC(=O)[C@H](CC(=O)O)NC(=O)CCC(=O)O)C(=O)N[C@@H](Cc1ccccc1)C(=O)N(C)[C@H](C(=O)NCC(=O)N[C@@H](CC(C)C)C(=O)N[C@@H](CCSC)C(N)=O)C(C)C [zfNKBa-analog] (Suc-DIF[NMeV]GLM-NH2)	EC50	0.29

Look at this compound and give its reported EC50. CC[C@H](C)[C@H](NC(=O)[C@H](CC(=O)O)NC(=O)[C@H](CC(N)=O)NC(=O)[C@@H](N)Cc1ccc(O)cc1)C(=O)N[C@@H](CC(=O)O)C(=O)N[C@@H](Cc1ccc(O)cc1)C(=O)N[C@@H](CC(=O)O)C(=O)N[C@@H](CO)C(=O)N[C@@H](Cc1ccccc1)C(=O)N[C@H](C(=O)NCC(=O)N[C@@H](CC(C)C)C(=O)N[C@@H](CCSC)C(N)=O)C(C)C [zfNKF] (H-YNDIDYDSFVGLM-NH2)
0.37
